- target.desc: hFSH-R (Homo sapiens, UniProt P23945)
- Construct: expressed in transfected cells; host or cells: CHO-3D2 cells (CHO-K1 parental line)
- Sequence (P23945 18-695): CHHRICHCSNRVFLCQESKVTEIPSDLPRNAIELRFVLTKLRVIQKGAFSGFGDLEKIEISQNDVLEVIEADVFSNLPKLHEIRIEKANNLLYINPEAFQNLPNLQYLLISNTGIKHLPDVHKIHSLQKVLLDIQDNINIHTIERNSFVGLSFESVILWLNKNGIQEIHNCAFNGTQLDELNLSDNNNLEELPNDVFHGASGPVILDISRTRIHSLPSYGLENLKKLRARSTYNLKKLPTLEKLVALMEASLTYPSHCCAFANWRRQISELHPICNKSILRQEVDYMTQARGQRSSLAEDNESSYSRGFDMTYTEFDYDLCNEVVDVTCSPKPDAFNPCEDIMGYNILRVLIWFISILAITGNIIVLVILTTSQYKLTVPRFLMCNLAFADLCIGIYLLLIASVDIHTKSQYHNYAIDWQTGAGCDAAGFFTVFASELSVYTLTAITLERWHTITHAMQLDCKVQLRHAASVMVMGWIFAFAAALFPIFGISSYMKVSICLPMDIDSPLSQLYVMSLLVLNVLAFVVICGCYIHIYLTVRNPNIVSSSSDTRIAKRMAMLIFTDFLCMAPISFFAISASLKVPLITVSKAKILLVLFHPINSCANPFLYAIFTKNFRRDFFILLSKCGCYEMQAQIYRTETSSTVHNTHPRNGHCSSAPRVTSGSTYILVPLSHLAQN
- test.description: cAMP accumulation (RIA) in CHO-3D2 cells (hFSH-R), hFSH-induced
- Assay type: cell-based
pIC50: −log10 of the molar value.
Kind request: treat 6 as inclusive, so pIC50 at 6 or higher is 1, anything lower is 0.

COc1cc(C(=O)N2Cc3ccc(C(=O)NCc4cccc(C(F)(F)F)c4)n3Cc3ccccc32)ccc1-c1ccccc1C; 0

Ask | Record `Cc1ccccc1-c1ccc(C(=O)N2Cc3ccc(C(=O)NCCc4ccc(O)cc4)n3Cc3ccccc32)cc1C` ; criterion: pIC50 no lower than 6. Met?
Reply | 1

Ask | Record `Cc1ccccc1-c1ccc(C(=O)N2Cc3ccc(C(=O)NCc4ccc(Cl)cc4)n3Cc3ccccc32)cc1C` ; criterion: pIC50 no lower than 6. Met?
Reply | 0

Ask | Record `COc1ccc(CNC(=O)c2ccc3n2Cc2ccccc2N(C(=O)c2ccc(-c4ccccc4C)c(C)c2)C3)cc1` ; criterion: pIC50 no lower than 6. Met?
Reply | 0

Ask | Record `COc1cc(CNC(=O)c2ccc3n2Cc2ccccc2N(C(=O)c2ccc(-c4ccccc4C)c(C)c2)C3)cc(OC)c1` ; criterion: pIC50 no lower than 6. Met?
Reply | 0

Ask | Record `Cc1ccc(CNC(=O)c2ccc3n2Cc2ccccc2N(C(=O)c2ccc(-c4ccccc4C)c(C)c2)C3)c(C)c1` ; criterion: pIC50 no lower than 6. Met?
Reply | 0

Ask | Record `Cc1ccc(CNC(=O)c2ccc3n2Cc2ccccc2N(C(=O)c2ccc(-c4ccccc4C)c(C)c2)C3)cc1` ; criterion: pIC50 no lower than 6. Met?
Reply | 0
